# Tested on: RAW264.7
# method.summary: Antiinflammatory activity in LPS-induced mouse RAW264.7 cells assessed as inhibition of iNOS activity preincubated for 2 hrs followed by LPS stimulation for 24 hrs by ELISA method
# Format: functional, cell-based
pIC50: −log10 of the molar value.
assay.metric: pIC50

{"chemical.smiles": "COc1ccc(C(=O)/C=C/c2cc(OC)c(OC)c(OC)c2)cc1OC", "assay.metric": "pIC50", "numeric.value": 5.34}
{"chemical.smiles": "COc1ccc(/C=C/C(=O)c2cc(OC)c(OC)c(OC)c2)cc1OC", "assay.metric": "pIC50", "numeric.value": 4.92}

###

Measured pIC50 by item
# Test system: RAW264.7
# method.summary: Antiinflammatory activity in LPS-induced mouse RAW264.7 cells assessed as inhibition of TNF-alpha release preincubated for 2 hrs followed by LPS stimulation for 24 hrs by ELISA method
# Type: functional, cell-based
pIC50: −log10 of the molar value.

{"chemical.smiles": "COc1ccc(/C=C/C(=O)c2cc(OC)c(OC)c(OC)c2)cc1OC", "pIC50": 5.15}
{"chemical.smiles": "COc1ccc(C(=O)/C=C/c2cc(OC)c(OC)c(OC)c2)cc1OC", "pIC50": 5.10}
